These entries and their values trace back to patent US20230257396A1.

This listing pairs compounds with measured % Ctrl, RET(M918T).
Target: kinases (Homo sapiens, UniProt P07949, M918T)
Construct: purchased Eurofins/DiscoveRx; host or cells: E. coli BL21-derived host (T7 phage display) for most kinases; HEK-293 for the rest
Sequence (P07949 29-1114 M918T): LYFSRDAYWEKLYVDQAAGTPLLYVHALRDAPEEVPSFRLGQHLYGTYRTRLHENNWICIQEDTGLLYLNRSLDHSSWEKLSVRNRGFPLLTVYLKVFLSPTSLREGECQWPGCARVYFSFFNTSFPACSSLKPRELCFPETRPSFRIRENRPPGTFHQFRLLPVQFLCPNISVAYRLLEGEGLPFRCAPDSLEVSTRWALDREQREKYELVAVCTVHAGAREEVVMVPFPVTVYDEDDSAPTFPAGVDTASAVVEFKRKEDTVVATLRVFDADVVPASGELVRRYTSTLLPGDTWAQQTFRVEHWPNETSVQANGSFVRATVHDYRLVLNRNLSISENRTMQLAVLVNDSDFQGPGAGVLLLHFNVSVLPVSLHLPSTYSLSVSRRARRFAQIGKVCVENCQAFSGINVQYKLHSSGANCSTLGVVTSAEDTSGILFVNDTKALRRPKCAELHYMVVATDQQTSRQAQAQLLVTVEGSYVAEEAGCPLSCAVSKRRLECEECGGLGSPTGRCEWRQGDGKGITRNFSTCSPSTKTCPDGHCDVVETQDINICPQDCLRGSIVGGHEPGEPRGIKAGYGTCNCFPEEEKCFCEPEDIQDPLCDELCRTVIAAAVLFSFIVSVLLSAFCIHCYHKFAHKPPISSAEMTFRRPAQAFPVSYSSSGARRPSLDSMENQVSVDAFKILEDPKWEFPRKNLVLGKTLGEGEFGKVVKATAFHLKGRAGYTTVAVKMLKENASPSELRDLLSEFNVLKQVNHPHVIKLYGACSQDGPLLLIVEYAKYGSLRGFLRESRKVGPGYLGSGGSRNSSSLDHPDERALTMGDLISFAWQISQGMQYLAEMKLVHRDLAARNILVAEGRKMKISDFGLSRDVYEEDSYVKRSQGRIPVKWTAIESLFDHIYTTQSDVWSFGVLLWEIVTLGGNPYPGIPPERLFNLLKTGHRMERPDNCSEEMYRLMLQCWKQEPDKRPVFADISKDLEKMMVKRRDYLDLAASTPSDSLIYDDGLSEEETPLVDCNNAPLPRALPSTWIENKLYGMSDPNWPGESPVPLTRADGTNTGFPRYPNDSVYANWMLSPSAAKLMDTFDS
Assay: KINOMEscan kinase binding assay (Eurofins/DiscoveRx), % Ctrl
Settings: 1 μM; target RET(M918T)

Compound	% Ctrl, RET(M918T)
Cc1cc2c([nH]1)/C=C1\C(=O)Nc3ccc(cc31)-c1cnn(C)c1OCCCN(C)C2=O [Ex. 166]	2.9 % Ctrl
Cc1cc2c([nH]1)/C=C1\C(=O)Nc3cc(Cl)c(cc31)SCCOCCN(C)C2=O [Ex. 169]	0 % Ctrl
Cc1cc2c([nH]1)/C=C1\C(=O)Nc3cnc(cc31)-c1cnn(C)c1CN(C)CCN(C)C2=O [Ex. 172]	0.8 % Ctrl
CN1CCOc2cc3c(cc2Cl)NC(=O)/C3=C\c2[nH]ccc2C(=O)N(C)CC1 [Ex. 164]	0 % Ctrl
Cc1cc2c([nH]1)/C=C1\C(=O)Nc3ccc(cc31)-c1c(noc1C(C)C)COCCN(C)C2=O [Ex. 161]	92 % Ctrl

----------
Molecular target: kinases (Homo sapiens, UniProt P00519, F317L)
Construct: purchased Eurofins/DiscoveRx; host or cells: E. coli BL21-derived host (T7 phage display) for most kinases; HEK-293 for the rest
Assay: KINOMEscan kinase binding assay (Eurofins/DiscoveRx), % Ctrl
Conditions: 1 μM; ABL1(F317L)-nonphosphorylated
Metric Name: % Ctrl, ABL1(F317L)-nonphosphorylated (% Ctrl)

Query Smiles	Assayed Target	Scale Unit	Meas Value
Cc1cc2c([nH]1)/C=C1\C(=O)Nc3cc(Cl)c(cc31)OCCO[C@@H](C(=O)NC1CNC1)CN(C)C2=O	kinases (Homo sapiens, UniProt P00519, F317L)	% Ctrl	77
Cc1cc2c([nH]1)/C=C1\C(=O)Nc3ccc(cc31)-c1ccnn1CCOCCN(C)C2=O	kinases (Homo sapiens, UniProt P00519, F317L)	% Ctrl	26
Cc1cc2c([nH]1)/C=C1\C(=O)Nc3cc(Cl)c(cc31)OCCO[C@@H](C(=O)NC1CCNCC1)CN(C)C2=O	kinases (Homo sapiens, UniProt P00519, F317L)	% Ctrl	62
Cc1cc2c([nH]1)/C=C1\C(=O)Nc3ccc(nc31)-c1ccccc1OCCCNC2=O	kinases (Homo sapiens, UniProt P00519, F317L)	% Ctrl	82

----------
This listing pairs compounds with measured % Ctrl, KIT(D816V).
Target: kinases (Homo sapiens, UniProt P10721, D816V)
Construct: purchased Eurofins/DiscoveRx; host or cells: E. coli BL21-derived host (T7 phage display) for most kinases; HEK-293 for the rest
Sequence (P10721 26-976 D816V): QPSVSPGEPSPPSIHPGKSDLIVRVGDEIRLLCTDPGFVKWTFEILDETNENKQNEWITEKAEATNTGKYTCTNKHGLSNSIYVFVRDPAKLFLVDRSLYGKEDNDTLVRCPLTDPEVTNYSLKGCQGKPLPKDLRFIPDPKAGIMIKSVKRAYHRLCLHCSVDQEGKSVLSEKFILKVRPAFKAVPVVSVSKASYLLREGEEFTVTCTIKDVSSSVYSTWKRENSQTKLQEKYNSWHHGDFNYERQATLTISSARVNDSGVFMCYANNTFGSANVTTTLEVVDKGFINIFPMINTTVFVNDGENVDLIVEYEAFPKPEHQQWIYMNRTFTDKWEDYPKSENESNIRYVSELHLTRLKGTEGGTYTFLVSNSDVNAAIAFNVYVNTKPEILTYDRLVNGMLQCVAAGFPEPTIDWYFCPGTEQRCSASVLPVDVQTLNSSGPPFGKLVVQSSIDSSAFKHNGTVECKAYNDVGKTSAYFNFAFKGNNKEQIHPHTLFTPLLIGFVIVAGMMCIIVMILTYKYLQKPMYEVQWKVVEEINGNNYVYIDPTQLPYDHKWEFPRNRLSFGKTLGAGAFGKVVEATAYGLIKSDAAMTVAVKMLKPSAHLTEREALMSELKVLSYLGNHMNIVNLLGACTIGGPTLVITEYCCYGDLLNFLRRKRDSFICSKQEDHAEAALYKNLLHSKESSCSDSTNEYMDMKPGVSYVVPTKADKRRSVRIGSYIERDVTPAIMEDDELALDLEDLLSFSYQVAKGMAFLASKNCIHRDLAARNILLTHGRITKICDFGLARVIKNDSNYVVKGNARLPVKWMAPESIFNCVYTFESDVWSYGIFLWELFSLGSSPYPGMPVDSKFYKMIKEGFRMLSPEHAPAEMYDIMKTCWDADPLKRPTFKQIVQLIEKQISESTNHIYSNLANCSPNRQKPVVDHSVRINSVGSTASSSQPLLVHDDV
Test: KINOMEscan kinase binding assay (Eurofins/DiscoveRx), % Ctrl
Details: 1 μM; KIT(D816V)

Query Smiles	% Ctrl, KIT(D816V) [% Ctrl]
Cc1cc2c([nH]1)/C=C1\C(=O)Nc3ccc(cc31)-c1ccnn1CCOCCN(C)C2=O	38
Cc1cc2c([nH]1)/C=C1\C(=O)Nc3cc(Cl)c(cc31)OCCOCCN(C)C2=O	1.2
Cc1cc2c([nH]1)/C=C1\C(=O)Nc3ccc(nc31)-c1ccccc1OCCCNC2=O	96
Cc1cc2c([nH]1)/C=C1\C(=O)Nc3ccc(cc31)-c1ccnn1CCNCCNC2=O	96
Cc1cc2c([nH]1)/C=C1\C(=O)Nc3ccc(cc31)-c1c(noc1C)COCCN(C)C2=O	84
Cc1cc2c([nH]1)/C=C1\C(=O)Nc3ccc(cc31)-c1cnn(C)c1CNCCN(C)C2=O	0.5

----------
Biological target: kinases (Homo sapiens, UniProt P00533)
Construct: purchased Eurofins/DiscoveRx; host or cells: E. coli BL21-derived host (T7 phage display) for most kinases; HEK-293 for the rest
Test: KINOMEscan kinase binding assay (Eurofins/DiscoveRx), % Ctrl
Settings: target EGFR; 1 μM
This listing pairs compounds with measured % Ctrl, EGFR.

Query Smiles	Assayed Target	% Ctrl, EGFR
Cc1cc2c([nH]1)/C=C1\C(=O)Nc3cc(Cl)c(cc31)OCCO[C@@H](C(=O)N1CCN(C)CC1)CN(C)C2=O	kinases (Homo sapiens, UniProt P00533)	76 % Ctrl
Cc1cc2c([nH]1)/C=C1\C(=O)Nc3ccc(cc31)-c1c(noc1C)CNCCN(C)C2=O	kinases (Homo sapiens, UniProt P00533)	94 % Ctrl
Cc1cc2c([nH]1)/C=C1\C(=O)Nc3cnc(cc31)-c1cn[nH]c1CNCCN(C)C2=O	kinases (Homo sapiens, UniProt P00533)	59 % Ctrl

----------
Tested on: kinases
Assay: KINOMEscan kinase binding assay (Eurofins/DiscoveRx), % Ctrl
Conditions: 1 μM; target FLT3(ITD, F691L)

Query Smiles	Scale Unit	% Ctrl, FLT3(ITD, F691L)
Cc1cc2c([nH]1)/C=C1\C(=O)Nc3cc(Cl)c(cc31)SCCOCCN(C)C2=O	% Ctrl	0.1
Cc1cc2c([nH]1)/C=C1\C(=O)Nc3ccc(cc31)-c1c(noc1C(C)C)COCCN(C)C2=O	% Ctrl	82
Cc1cc2c([nH]1)/C=C1\C(=O)Nc3ccc(cc31)-c1cnn(C)c1OCCCN(C)C2=O	% Ctrl	0
CN1CCOc2cc3c(cc2Cl)NC(=O)/C3=C\c2[nH]ccc2C(=O)N(C)CC1	% Ctrl	1
Cc1cc2c([nH]1)/C=C1\C(=O)Nc3cnc(cc31)-c1cnn(C)c1CN(C)CCN(C)C2=O	% Ctrl	0.3

----------
This listing pairs compounds with measured % Ctrl, ABL1(M351T)-phosphorylated.
Molecular target: kinases (Homo sapiens, UniProt P00519, M351T)
Construct: purchased Eurofins/DiscoveRx; host or cells: E. coli BL21-derived host (T7 phage display) for most kinases; HEK-293 for the rest
Assay: KINOMEscan kinase binding assay (Eurofins/DiscoveRx), % Ctrl
Settings: target ABL1(M351T)-phosphorylated; 1 μM
Metric Name: % Ctrl, ABL1(M351T)-phosphorylated

Query Smiles	Assayed Target	Metric Name	Meas Value
Cc1nn(C)c2c1-c1ccc3c(c1)/C(=C/c1[nH]ccc1C(=O)N(C)CCCO2)C(=O)N3	kinases (Homo sapiens, UniProt P00519, M351T)	% Ctrl, ABL1(M351T)-phosphorylated	94 % Ctrl
Cc1cc2c([nH]1)/C=C1\C(=O)Nc3ccc(cc31)-c1c(C)nn(C)c1COCCN(C)C2=O	kinases (Homo sapiens, UniProt P00519, M351T)	% Ctrl, ABL1(M351T)-phosphorylated	67 % Ctrl
Cc1cc2c([nH]1)/C=C1\C(=O)Nc3cc(Cl)c(cc31)OCCO[C@@H](C(=O)N1CCN(C)CC1)CN(C)C2=O	kinases (Homo sapiens, UniProt P00519, M351T)	% Ctrl, ABL1(M351T)-phosphorylated	71 % Ctrl
Cc1cc2c([nH]1)/C=C1\C(=O)Nc3cnc(cc31)-c1cn[nH]c1CNCCN(C)C2=O	kinases (Homo sapiens, UniProt P00519, M351T)	% Ctrl, ABL1(M351T)-phosphorylated	3.7 % Ctrl
CN1CCSCCOc2cc3c(cc2Cl)NC(=O)/C3=C\c2[nH]ccc2C1=O	kinases (Homo sapiens, UniProt P00519, M351T)	% Ctrl, ABL1(M351T)-phosphorylated	9.5 % Ctrl
CN1CCOCCOc2cc3c(cc2Cl)NC(=O)/C3=C\c2[nH]ccc2C1=O	kinases (Homo sapiens, UniProt P00519, M351T)	% Ctrl, ABL1(M351T)-phosphorylated	13 % Ctrl
Cc1cc2c([nH]1)/C=C1\C(=O)Nc3ccc(cc31)-c1c(noc1C)CNCCN(C)C2=O	kinases (Homo sapiens, UniProt P00519, M351T)	% Ctrl, ABL1(M351T)-phosphorylated	7.3 % Ctrl

----------
Biological target: kinases (Homo sapiens, UniProt P00533, L858R/T790M)
Construct: purchased Eurofins/DiscoveRx; host or cells: E. coli BL21-derived host (T7 phage display) for most kinases; HEK-293 for the rest
Assay: KINOMEscan kinase binding assay (Eurofins/DiscoveRx), % Ctrl
Conditions: target EGFR(L858R, T790M); 1 μM

Compound	Assayed Target	% Ctrl, EGFR(L858R, T790M) (% Ctrl)
CN1CCOCCOc2cc3c(cc2Cl)NC(=O)/C3=C\c2[nH]ccc2C1=O [Ex. 143]	kinases (Homo sapiens, UniProt P00533, L858R/T790M)	75
Cc1cc2c([nH]1)/C=C1\C(=O)Nc3cc(Cl)c(cc31)OCCO[C@@H](C(=O)N1CCN(C)CC1)CN(C)C2=O [Ex. 138]	kinases (Homo sapiens, UniProt P00533, L858R/T790M)	82
Cc1cc2c([nH]1)/C=C1\C(=O)Nc3ccc(cc31)-c1c(C)nn(C)c1COCCN(C)C2=O [Ex. 146]	kinases (Homo sapiens, UniProt P00533, L858R/T790M)	43
Cc1cc2c([nH]1)/C=C1\C(=O)Nc3cnc(cc31)-c1cn[nH]c1CNCCN(C)C2=O [Ex. 55]	kinases (Homo sapiens, UniProt P00533, L858R/T790M)	35
Cc1nn(C)c2c1-c1ccc3c(c1)/C(=C/c1[nH]ccc1C(=O)N(C)CCCO2)C(=O)N3 [Ex. 150]	kinases (Homo sapiens, UniProt P00533, L858R/T790M)	83
CN1CCSCCOc2cc3c(cc2Cl)NC(=O)/C3=C\c2[nH]ccc2C1=O [Ex. 153]	kinases (Homo sapiens, UniProt P00533, L858R/T790M)	79
Cc1cc2c([nH]1)/C=C1\C(=O)Nc3ccc(cc31)-c1c(noc1C)CNCCN(C)C2=O [Ex. 139]	kinases (Homo sapiens, UniProt P00533, L858R/T790M)	17
